In this section, each of the compounds is paired with its reported pest or weed control at 2 ppm.
Test system: Phytophthora infestans
experimentNotes: whole plant or invertebrate
Type: in vivo
studyConditions: Phytophthora infestans, in Solanum lycopersicum, read-out: TLB control value (C.V.)
recordedEndpoint: pest or weed control at 2 ppm (%)

inputSmiles	target	recordedEndpoint	recordedValue
CNC(=O)/C(=N/OC)c1ccccc1COc1ccc(C=C(Cl)Cl)cc1	Phytophthora infestans	pest or weed control at 2 ppm	100
CO/N=C(/C(=O)OC)c1ccccc1COc1cccc(C=C(Br)Br)c1Cl	Phytophthora infestans	pest or weed control at 2 ppm	99
CO/N=C(/C(=O)OC)c1ccccc1COc1ccc(C=C(Br)Br)c(Cl)c1	Phytophthora infestans	pest or weed control at 2 ppm	60
CNC(=O)/C(=N/OC)c1ccccc1COc1ccc(F)cc1C=C(Br)Br	Phytophthora infestans	pest or weed control at 2 ppm	70
CCOc1cc(C=C(Br)Br)ccc1OCc1ccccc1/C(=N\OC)C(=O)OC	Phytophthora infestans	pest or weed control at 2 ppm	70

---

Test system: Phytophthora infestans
experimentNotes: whole plant or invertebrate
Format: in vivo
studyConditions: Phytophthora infestans, in Solanum lycopersicum, read-out: TLB control value (C.V.)

inputSmiles	pest or weed control at 50 ppm
CNC(=O)/C(=N/OC)c1ccccc1COc1ccc(F)cc1C=C(Br)Br	98%
CNC(=O)/C(=N/OC)c1ccccc1COc1c(C)cccc1C=C(Br)Br	90%
CO/N=C(/C(=O)OC)c1ccccc1COc1cc(C=C(Br)Br)ccc1OC	98%

---

Test system: Phytophthora infestans
experimentNotes: whole plant or invertebrate
Format: in vivo
studyConditions: 100 ppm, tomato late blight

inputSmiles	TLB control value (C.V.) [%]
CNC(=O)/C(=N/OC)c1ccccc1COc1cccc(C=C(F)Cl)c1	93
CO/N=C(/C(=O)OC)c1ccccc1CON=C(C)c1cccc(C=C(F)F)c1	100
CNC(=O)/C(=N/OC)c1ccccc1COc1c(OC)ccc(C=C(Cl)Cl)c1Br	100
CO/N=C(/C(=O)OC)c1ccccc1CON=C(C)c1ccc(C=C(F)Cl)cc1	60
CNC(=O)/C(=N/OC)c1ccccc1CON=C(C)c1ccc(C=C(F)F)cc1	100
CNC(=O)/C(=N/OC)c1ccccc1CON=C(C)c1cccc(C=C(Cl)Br)c1	100
CNC(=O)/C(=N/OC)c1ccccc1COc1ccc(C=C(F)Cl)cc1	98

---

Each entry below lists one item and its recorded pest or weed control at 2 ppm value.
System: Puccinia recondita
experimentNotes: Fungicidal activity against wheat leaf rust (WLR) disease, control value
Assay type: in vivo
studyConditions: 2 ppm, wheat leaf rust; read-out: WLR control value (C.V.)
recordedEndpoint: pest or weed control at 2 ppm (%)

compound	recordedValue
CNC(=O)/C(=N/OC)c1ccccc1COc1ccc(C)cc1C=C(Cl)Cl [Example 46]	100
CNC(=O)/C(=N/OC)c1ccccc1COc1ccc(C=C(F)F)cc1 [Example 10]	100
CO/N=C(/C(=O)OC)c1ccccc1COc1ccc(C=C(Br)Br)cc1 [Example 7]	100

---

pest or weed control at 50 ppm listing for selected molecules.
Test system: Phytophthora infestans
experimentNotes: whole plant or invertebrate
Type: in vivo
studyConditions: Phytophthora infestans, in Solanum lycopersicum, read-out: TLB control value (C.V.)

inputSmiles	target	unitsText	pest or weed control at 50 ppm
CNC(=O)/C(=N/OC)c1ccccc1COc1ccc(C)cc1C=C(Br)Br	Phytophthora infestans	%	90
CO/N=C(/C(=O)OC)c1ccccc1COc1ccc(C=C(Cl)Br)cc1	Phytophthora infestans	%	90
CNC(=O)/C(=N/OC)c1ccccc1COc1cc(C=C(Br)Br)ccc1OC	Phytophthora infestans	%	100
CO/N=C(/C(=O)OC)c1ccccc1COc1c(OC)ccc(C=C(Br)Br)c1Br	Phytophthora infestans	%	98
CO/N=C(/C(=O)OC)c1ccccc1COc1cccc(C=C(Cl)Br)c1	Phytophthora infestans	%	90
